This section presents compounds with their documented EC50 values.
# Tested on: TK− VZV strain 07-1
# Assay Remarks: microbe, parasite or virus in culture
# Format: cell-based, varicella-zoster virus
# Condition Notes: Human alphaherpesvirus 3, HEL, read-out: Antiviral activity EC50 VZV TK− strain
The figure you give is taken to be in nM; do not add the unit.

Some solved cases for reference:
Compound	Readout Type	Obs Value
CCCCCOC(=O)[C@@H](NP(=O)(CO[C@H](CO)Cn1cnc2c(N)ncnc21)N[C@H](C(=O)OCCCCC)C(C)C)C(C)C [Example 19]	EC50	0.95
CCCCCOC(=O)[C@@H](NP1(=O)CO[C@@H](Cn2cnc3c(N)ncnc32)CO1)[C@@H](C)CC (stereo partly shown) [Example 18]	EC50	0.54
CCCCCOC(=O)[C@H](CCSC)NP1(=O)CO[C@@H](Cn2cnc3c(N)ncnc32)CO1 (stereo partly shown) [Example 13]	EC50	4

Prompt: I'd like to know its EC50. The compound in question is CCCCCOC(=O)C[C@H](NP1(=O)CO[C@@H](Cn2ccc(N)nc2=O)CO1)C(=O)OCCCCC (stereo partly shown) [Example 10]
Response: 6.3

Prompt: I'd like to know its EC50. The compound in question is CCCCCOC(=O)C[C@H](NP1(=O)CO[C@H](Cn2ccc(N)nc2=O)CO1)C(=O)OCCCCC (stereo partly shown) [Example 11]
Response: 1240

Prompt: I'd like to know its EC50. The compound in question is CCCCCOC(=O)C[C@H](NP1(=O)CO[C@H](Cn2cnc3c(N)ncnc32)CO1)C(=O)OCCCCC (stereo partly shown) [Example 9]
Response: 62

Prompt: I'd like to know its EC50. The compound in question is CCCCCOC(=O)[C@H](Cc1ccccc1)NP1(=O)CO[C@@H](Cn2cnc3c(N)ncnc32)CO1 (stereo partly shown) [Example 12]
Response: 3.2

Prompt: I'd like to know its EC50. The compound in question is CCCCCOC(=O)CC[C@H](NP1(=O)CO[C@@H](Cn2cnc3c(N)ncnc32)CO1)C(=O)OCCCCC (stereo partly shown) [Example 15]
Response: 0.95

Prompt: I'd like to know its EC50. The compound in question is CCCCCOC(=O)[C@@H](NP1(=O)CO[C@@H](Cn2cnc3c(N)ncnc32)CO1)C(C)C (stereo partly shown) [Example 16]
Response: 1.5

Prompt: I'd like to know its EC50. The compound in question is CCCCCOC(=O)[C@H](CC(C)C)NP1(=O)CO[C@@H](Cn2cnc3c(N)ncnc32)CO1 (stereo partly shown) [Example 17]
Response: 0.59

Prompt: I'd like to know its EC50. The compound in question is CCCCCOC(=O)C[C@H](NP1(=O)CO[C@@H](Cn2cnc3c(N)ncnc32)CO1)C(=O)OCCCCC (stereo partly shown) [Example 8]
Response: 1.5

Prompt: I'd like to know its EC50. The compound in question is CCCCCOC(=O)[C@H](C)NP1(=O)CO[C@@H](Cn2cnc3c(N)ncnc32)CO1 (stereo partly shown) [Example 14]
Response: 4.3

Prompt: I'd like to know its EC50. The compound in question is O=c1[nH]c(=O)n([C@H]2C[C@H](O)[C@@H](CO)O2)cc1/C=C/Br [Brivudin, reference compound]
Response: 22100

Reference source for all entries: patent US11040047B2
